# assayed-system: MBI_CD19_2; (MOR208)
# Sequence (chain, as listed by the source, chain 1 of 2): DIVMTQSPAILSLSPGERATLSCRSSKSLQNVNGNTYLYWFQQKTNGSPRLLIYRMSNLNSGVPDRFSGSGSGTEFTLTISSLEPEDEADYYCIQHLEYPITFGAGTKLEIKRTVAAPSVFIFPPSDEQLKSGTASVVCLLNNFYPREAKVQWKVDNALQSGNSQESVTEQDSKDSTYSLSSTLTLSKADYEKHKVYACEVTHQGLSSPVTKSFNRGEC
# Sequence (chain, as listed by the source, chain 2 of 2): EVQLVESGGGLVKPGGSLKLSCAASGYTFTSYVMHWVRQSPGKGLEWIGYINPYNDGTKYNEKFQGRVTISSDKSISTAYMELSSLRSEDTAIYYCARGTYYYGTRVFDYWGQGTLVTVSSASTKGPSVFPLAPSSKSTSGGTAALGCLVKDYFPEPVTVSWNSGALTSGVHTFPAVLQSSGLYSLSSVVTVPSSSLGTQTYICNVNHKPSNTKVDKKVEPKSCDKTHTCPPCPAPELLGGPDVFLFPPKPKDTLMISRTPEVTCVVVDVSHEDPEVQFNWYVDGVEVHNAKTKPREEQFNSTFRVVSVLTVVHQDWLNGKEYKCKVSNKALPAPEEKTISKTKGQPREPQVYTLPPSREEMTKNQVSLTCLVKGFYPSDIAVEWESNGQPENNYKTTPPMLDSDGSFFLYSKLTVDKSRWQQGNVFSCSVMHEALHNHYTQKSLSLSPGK
# test-details: BLI Octet, antibody on anti-human Fc tip, peptide 333 nM
pKd: −log10 of the molar value.
property-measured: pKd

Looking for the measured pKd of CQFDLSTRRLRC (modifications not checked) [Peptide 22: DM1 conjugated cQFD (cQFD-DM1)] , can you help?
> 12.00
